B1: library; a variant is named by its letters at X, in order (parent)
chain: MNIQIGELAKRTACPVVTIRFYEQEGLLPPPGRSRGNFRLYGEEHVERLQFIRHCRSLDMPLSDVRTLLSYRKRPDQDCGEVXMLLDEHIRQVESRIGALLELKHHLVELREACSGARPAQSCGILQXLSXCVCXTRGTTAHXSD

Variants of: B1
Assay: sfGFP reporter fluorescence (15 h) (µM FITC); higher = stronger transcriptional activation
Conditions: library round: Round 2; ligand: 1 µM Pb

mutation.code: NGDDP P61N D64K K104M L107C
sfGFP reporter fluorescence: 1.74

mutation.code: SGDAY
sfGFP reporter fluorescence: 0.0749

mutation.code: NGCDR K104R
sfGFP reporter fluorescence: 0.0672

mutation.code: NGDDP D64K V108E R111L
sfGFP reporter fluorescence: 0.165

mutation.code: TGDAP E109L
sfGFP reporter fluorescence: 0.0797

mutation.code: NMDAA K104R L107C
sfGFP reporter fluorescence: 3.13

mutation.code: NGDAL L110I
sfGFP reporter fluorescence: 0.0575

mutation.code: NGCDP M60L P61N D64K K104V
sfGFP reporter fluorescence: 0.384

mutation.code: NGSAY L107V
sfGFP reporter fluorescence: 0.238
